System: PBMCs
protocol summary: in vitro
Type: cell-based, human
applied conditions: Table 1; viability of uninfected cells reduced by 50%; read-out: HIV-1 CC50 (PBMCs)
measurement kind: CC50

> print(dat)
                                   compound  measurement.kind    result
1  CCCCCCCCCCSSCCOP(=O)(O)CO[C@H](C)Cn1cnc2c(N)ncnc21.N [Compound 11a]              CC50   > 50 µM
2  CCCCCCCCCCCCCCCCCCSSCCOP(=O)(O)CO[C@H](C)Cn1cnc2c(N)ncnc21.N [Compound 11e]              CC50   6.36 µM
3  CCCCCCCCCCCCSSCCOP(=O)(O)CO[C@H](C)Cn1cnc2c(N)ncnc21.N [Compound 11b]              CC50     25 µM
4  C[C@H](Cn1cnc2c(N)ncnc21)OCP(=O)(O)OCCSSCCO [DTE-TFV, reference compound]              CC50  > 100 µM
5  CCCCCCCCCCCCCCSSCCOP(=O)(O)CO[C@H](C)Cn1cnc2c(N)ncnc21.N [Compound 11c]              CC50     14 µM

Hello, the source for this data is patent US11801255B2, in case you need it.
